# testSystem: CETP (Homo sapiens)
# Construct: enriched CETP fraction, obtained from human plasma by means of hydrophobic chromatography; from tissue; host or cells: human plasma
# methodDescription: CETP fluorescence test
# Format: biochemical
# assayConditions: CETP from human plasma, transfer of fluorescent cholesterol ester between liposomes, 37° C., 4 hours; read-out: IC50 [nM] Fluor. test
Our labelling divides records by IC50 into ranges: low (below 100 nM), intermediate (100 nM to below 500 nM), high (500 nM or more)

As a guide, the following entries are already answered.
compound | testSystem | classification
CCc1c(C)c(Cl)c2c(c1OC(=O)C1(C)C3CCC1CC3)Oc1ccc([C@@H](O)CC(C)(C)C)c(OC)c1C(=O)OC2 (some centres unmarked) [Example C-73] | CETP (Homo sapiens) | low
COc1c([C@@H](O)CC(C)C)ccc2c1C(=O)OCc1cc(C)cc(OC(=O)C3(c4cccc(F)c4)CCCCC3)c1O2 [Example B-8] | CETP (Homo sapiens) | high
COc1c([C@@H](O)CC(C)C)ccc2c1C(=O)OCc1c(Cl)c(C)c(Cl)c(OC(=O)C3(C)CC4CCC3C4)c1O2 (some centres unmarked) [Example B-81] | CETP (Homo sapiens) | low
CCc1c(C)c(Cl)c2c(c1OC(=O)C1(C)C3CCC1CC3)Oc1ccc([C@@H](O)CC(C)C)c(OC)c1C(=O)OC2 (some centres unmarked) [Example C-118] | CETP (Homo sapiens) | low
COc1c([C@@H](O)CC(C)C)ccc2c1C(=O)OCc1c(Br)c(C)c(Br)c(OCCCC(F)(F)F)c1O2 [Example B-1] | CETP (Homo sapiens) | high

Kindly review the next compound as well.
For the record COc1c([C@@H](O)CC(C)C)ccc2c1C(=O)OCc1cc(C(F)F)cc(OCCC(C)C)c1O2 [Example B-176] , report the class its IC50 corresponds to.
high

* * *

Recorded IC50 for the following compounds
# testSystem: CETP (Homo sapiens, UniProt P11597)
# Construct: enriched CETP fraction, obtained from human plasma by means of hydrophobic chromatography; from tissue; host or cells: human plasma
# Sequence (P11597 18-493): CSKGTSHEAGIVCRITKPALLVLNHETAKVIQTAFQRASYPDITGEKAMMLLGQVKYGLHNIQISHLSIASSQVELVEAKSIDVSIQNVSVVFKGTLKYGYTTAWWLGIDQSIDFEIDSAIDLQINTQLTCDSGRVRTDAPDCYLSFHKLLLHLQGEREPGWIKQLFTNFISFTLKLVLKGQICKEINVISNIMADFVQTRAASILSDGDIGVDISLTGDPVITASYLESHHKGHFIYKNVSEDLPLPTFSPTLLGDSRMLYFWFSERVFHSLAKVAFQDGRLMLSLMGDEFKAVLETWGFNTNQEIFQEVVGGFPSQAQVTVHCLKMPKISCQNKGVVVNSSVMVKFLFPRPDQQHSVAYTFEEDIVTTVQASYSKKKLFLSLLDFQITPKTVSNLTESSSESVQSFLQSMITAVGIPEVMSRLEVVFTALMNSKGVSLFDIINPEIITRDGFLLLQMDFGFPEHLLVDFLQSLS
# methodDescription: CETP fluorescence test
# Format: biochemical
# assayConditions: CETP from human plasma, transfer of fluorescent cholesterol ester between liposomes, 37° C., 4 hours; read-out: IC50 [nM] Fluor. test
Respond with a number, then the unit of measure.

compound | measurementName | reportedMeasurement
CCc1c(C)c(Cl)c2c(c1OC(=O)C1(C)C3CCC1CC3)Oc1ccc([C@@H](O)CC(C)C)c(OC)c1C(=O)OC2 (stereo partly shown) [Example C-65] | IC50 | 50 nM
COc1c(C(O)CC(C)(C)C)ccc2c1C(=O)OCc1cc(C)cc(OCCC(C)C)c1O2 (stereo not shown) | IC50 | 1500 nM
COc1c([C@@H](O)CC(C)C)ccc2c1C(=O)OC(C)c1cc(C)cc(OCCC(C)C)c1O2 (mixture of isomers) | IC50 | 5000 nM

Query: IC50; subject: COc1c([C@@H](O)CC(C)C)ccc2c1C(=O)OCc1c(Cl)c(C)c(Br)c(OC(=O)C3(C)CC4CCC3C4)c1O2 (stereo partly shown)
70 nM

* * *

Recorded inhibition at 30 mg/kg for the following compounds
# testSystem: CETP activity in the serum (Homo sapiens)
# Construct: from tissue; host or cells: serum of transgenic hCETP mice
# methodDescription: Measurement of the ex vivo activities on transgenic hCETP mice
# Format: in vivo
# assayConditions: mouse; 30 mg/kg oral, 0.5 h after administration, serum cholesteryl ester transport; read-out: % inhibition at 30 mg/kg 0.5 h
Provide only the numeric value, understood in %.

// worked examples, inhibition at 30 mg/kg included
compound | testSystem | unitSpec | inhibition at 30 mg/kg
COc1c([C@@H](O)CC(C)C)ccc2c1C(=O)OCc1c(Cl)c(C)c(Br)c(OC(=O)C3(C)CC4CCC3C4)c1O2 (stereo partly drawn) | CETP activity in the serum (Homo sapiens) | % | 70
COc1c([C@@H](O)CC(C)C)ccc2c1C(=O)OCc1c(Cl)c(C)c(Br)c(OC(=O)[C@]3(C)CC4C=CC3C4)c1O2 (stereo partly drawn) | CETP activity in the serum (Homo sapiens) | % | 83
COc1c([C@@H](O)CC(C)C)ccc2c1C(=O)OCc1c(Cl)c(C)c(Cl)c(OC(=O)C3(C)CC4CCC3C4)c1O2 (stereo partly drawn) | CETP activity in the serum (Homo sapiens) | % | 54

Query: inhibition at 30 mg/kg; subject: COc1c([C@@H](O)CC(C)C)ccc2c1C(=O)OCc1c(Cl)c(C)c(Cl)c(OC(=O)C3(C)CCCCC3)c1O2
31

Query: inhibition at 30 mg/kg; subject: COc1c([C@@H](O)CC(C)C)ccc2c1C(=O)OCc1c(C)c(C)c(C)c(OC(=O)C3(C)CC4CCC3C4)c1O2 (stereo partly drawn)
48

Query: inhibition at 30 mg/kg; subject: COc1c([C@@H](O)CC(C)C)ccc2c1C(=O)OCc1c(Br)c(C)c(Br)c(OC(=O)C3(C)CC4CCC3C4)c1O2 (stereo partly drawn)
52
